Reported % Loss values for a set of compounds
conditions: 15 min
Measurement kind: % Loss

>>> recorded_value("Oc1ccc(C(c2ccc(O)cc2)(C(F)(F)F)C(F)(F)F)cc1 [BPAF]")
"-9%"
>>> recorded_value("O=S(=O)(c1ccc(O)cc1)c1ccc(O)cc1 [BPS, 4,4'-Sulfonyldiphenol]")
"-2%"
>>> recorded_value("CCC(C)(c1ccc(O)cc1)c1ccc(O)cc1 [BPB, 4,4'-(Butane-2,2-diyl)diphenol]")
"12%"
>>> recorded_value("CC(C)(c1ccc(OCC2CO2)cc1)c1ccc(OCC2CO2)cc1 (stereo not drawn) [BADGE, Bisphenol A diglycidyl ether]")
"-5%"
>>> recorded_value("CC(C)CC(C)(c1ccc(O)cc1)c1ccc(O)cc1 [BP-MIBK, 4,4'-(1,3-Dimethylbutylidene)diphenol]")
"10%"
>>> recorded_value("CC(c1ccc(O)cc1)c1ccc(O)cc1 [BPE, 4,4′-Ethylidenbisphenol]")
"21%"
